Tested on: THP-1 cells
METHOD DESCRIPTION: Induction of differentiation of THP-1 leukemia cells (CD11b membrane expression, flow cytometry)
Assay type: cell-based
CONDITIONS USED: Homo sapiens; percentage of CD11b positive THP-1 cells, 96 h treatment
pEC50: −log10 of the molar value. Counter-ions that a name gives are not always drawn.
Entries annotated with measured pEC50
ENDPOINT: pEC50

{"COMPOUND": "N[C@H]1CC[C@H](N[C@@H]2C[C@H]2c2ccccc2)CC1 [Example 5, hydrochloride]", "EXPERIMENTAL SYSTEM": "THP-1 cells", "ENDPOINT": "pEC50", "ENDPOINT VALUE": 9.10}
{"COMPOUND": "N[C@H]1CC[C@@H](N[C@@H]2C[C@H]2c2ccccc2)CC1 [Example 4, hydrochloride]", "EXPERIMENTAL SYSTEM": "THP-1 cells", "ENDPOINT": "pEC50", "ENDPOINT VALUE": 8.28}

Every entry's value here was drawn from patent US10214477B2.
